Parameter: combination Emax. Scope: all listed entries.
# Tested on: NCI-H524 (Small Cell Lung Carcinoma)
# protocol.description: combination Emax (second highest fraction inhibited in the dose matrix, 72 h); higher = more inhibition; extreme values may be limits of the assay
reported.endpoint: combination Emax

>>> quantitative_readout("COc1cccc2c1C(=O)c1c(O)c3c(c(O)c1C2=O)C[C@@](O)(C(=O)CO)C[C@@H]3O[C@H]1C[C@H](N)[C@H](O)[C@H](C)O1 [Doxorubicin] + Cc1cc2ncnn2cc1Nc1ncc2c(n1)n(C1CCOCC1)c(=O)n2C [AZD7648] (first compound max 1 µM, 7x7, partner max 10 µM)")
0.693
>>> quantitative_readout("COc1nnc2ccc(N3CCC(c4ccc(OCCN5CCN(C)C(=O)[C@H]5C)cc4)CC3)nn12 [AZD5153] + Cc1c2c(nn1C)CSCc1cc(n(C)n1)CSc1cc(c3ccccc3c1)OCCCc1c(C(=O)O)n(C)c3c-2c(Cl)ccc13 [AZD5991] (first compound max 1 µM, 7x7, partner max 1 µM)")
0.934
>>> quantitative_readout("CCN(CCO)CCCOc1ccc2c(Nc3cc(CC(=O)Nc4cccc(F)c4)[nH]n3)ncnc2c1 [AZD2811] + C=CCn1c(=O)c2cnc(Nc3ccc(N4CCN(C)CC4)cc3)nc2n1-c1cccc(C(C)(C)O)n1 [AZD1775] (first compound max 1 µM, partner max 1 µM)")
0.976
